# Test target: HDAC6 (Homo sapiens)
# Sequence (Q9UBN7 1-1215): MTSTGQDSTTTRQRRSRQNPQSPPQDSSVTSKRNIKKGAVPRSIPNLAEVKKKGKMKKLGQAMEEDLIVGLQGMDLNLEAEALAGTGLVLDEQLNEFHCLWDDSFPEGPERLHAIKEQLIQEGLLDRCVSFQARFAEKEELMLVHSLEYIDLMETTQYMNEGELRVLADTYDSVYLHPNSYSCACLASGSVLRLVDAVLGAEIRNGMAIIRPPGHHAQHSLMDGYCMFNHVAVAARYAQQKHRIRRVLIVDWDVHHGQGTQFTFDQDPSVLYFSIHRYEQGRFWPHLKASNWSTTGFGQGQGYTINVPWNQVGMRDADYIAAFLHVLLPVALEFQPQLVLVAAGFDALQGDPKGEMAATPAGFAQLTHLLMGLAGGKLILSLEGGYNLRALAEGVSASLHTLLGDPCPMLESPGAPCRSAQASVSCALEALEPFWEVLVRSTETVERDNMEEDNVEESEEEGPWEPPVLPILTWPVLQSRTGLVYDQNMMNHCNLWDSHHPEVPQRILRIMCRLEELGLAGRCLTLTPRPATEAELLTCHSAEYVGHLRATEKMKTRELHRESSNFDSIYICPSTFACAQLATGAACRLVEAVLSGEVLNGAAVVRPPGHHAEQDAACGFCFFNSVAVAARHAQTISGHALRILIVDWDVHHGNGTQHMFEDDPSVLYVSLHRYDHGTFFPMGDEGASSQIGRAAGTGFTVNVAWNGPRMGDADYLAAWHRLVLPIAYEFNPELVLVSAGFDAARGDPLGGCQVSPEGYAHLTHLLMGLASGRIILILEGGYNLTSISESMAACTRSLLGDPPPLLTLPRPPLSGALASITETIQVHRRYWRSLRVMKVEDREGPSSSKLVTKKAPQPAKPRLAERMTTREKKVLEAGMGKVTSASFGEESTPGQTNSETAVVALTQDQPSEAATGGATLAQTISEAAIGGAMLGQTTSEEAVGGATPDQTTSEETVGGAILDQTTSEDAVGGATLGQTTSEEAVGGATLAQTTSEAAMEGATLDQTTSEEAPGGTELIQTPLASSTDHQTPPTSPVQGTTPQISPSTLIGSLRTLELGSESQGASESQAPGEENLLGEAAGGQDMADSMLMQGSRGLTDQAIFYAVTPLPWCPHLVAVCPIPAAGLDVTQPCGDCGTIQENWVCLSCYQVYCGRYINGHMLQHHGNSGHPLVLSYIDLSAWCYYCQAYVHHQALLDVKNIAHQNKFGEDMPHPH
Property measured: IC50 (nM)
The figure you give is taken to be in nM; do not add the unit.

Problem: Look up IC50: CN(C(=O)CCCNc1cccc2c1C(=O)N(C1CCC(=O)NC1=O)C2=O)c1ccc(NC(=O)CCCCCCC(=O)NO)cc1 (stereo not shown)
Result: 48.5

----------
# Test target: HDAC1 (Homo sapiens)
Property measured: IC50 (µM)
The figure you give is taken to be in µM; do not add the unit.

Problem: Look up IC50: CN(C(=O)CCCCCCCNc1cccc2c1C(=O)N(C1CCC(=O)NC1=O)C2=O)c1ccc(NC(=O)CCCCCCC(=O)NO)cc1 (stereo not shown)
Result: 4.41

----------
# Test target: CRBN (Homo sapiens, UniProt Q96SW2)
# Construct: endogenous in cells
# Method description: Cellular CRBN engagement assay (competition with dBET6, BRD4BD2-eGFP reporter)
# Recorded conditions: Flip-In 293 BRD4BD2-eGFP cells, 100 nM dBET6, 5 h
Kindly state pIC50 for each of the entries shown.
A value of pIC50 is the negative decimal logarithm of a concentration given in moles per litre.

Problem: Look up pIC50: CN(C(=O)CCCCCCCNc1cccc2c1C(=O)N(C1CCC(=O)NC1=O)C2=O)c1ccc(NC(=O)CCCCCCC(=O)NO)cc1 (centres unmarked)
Result: 5.79

Problem: Same question for CN(C(=O)CCCCCNc1cccc2c1C(=O)N(C1CCC(=O)NC1=O)C2=O)c1ccc(NC(=O)CCCCCCC(=O)NO)cc1 (centres unmarked) please.
Result: 5.27
